Target: UniProtKB P29477
Sequence (P29477 whole entry): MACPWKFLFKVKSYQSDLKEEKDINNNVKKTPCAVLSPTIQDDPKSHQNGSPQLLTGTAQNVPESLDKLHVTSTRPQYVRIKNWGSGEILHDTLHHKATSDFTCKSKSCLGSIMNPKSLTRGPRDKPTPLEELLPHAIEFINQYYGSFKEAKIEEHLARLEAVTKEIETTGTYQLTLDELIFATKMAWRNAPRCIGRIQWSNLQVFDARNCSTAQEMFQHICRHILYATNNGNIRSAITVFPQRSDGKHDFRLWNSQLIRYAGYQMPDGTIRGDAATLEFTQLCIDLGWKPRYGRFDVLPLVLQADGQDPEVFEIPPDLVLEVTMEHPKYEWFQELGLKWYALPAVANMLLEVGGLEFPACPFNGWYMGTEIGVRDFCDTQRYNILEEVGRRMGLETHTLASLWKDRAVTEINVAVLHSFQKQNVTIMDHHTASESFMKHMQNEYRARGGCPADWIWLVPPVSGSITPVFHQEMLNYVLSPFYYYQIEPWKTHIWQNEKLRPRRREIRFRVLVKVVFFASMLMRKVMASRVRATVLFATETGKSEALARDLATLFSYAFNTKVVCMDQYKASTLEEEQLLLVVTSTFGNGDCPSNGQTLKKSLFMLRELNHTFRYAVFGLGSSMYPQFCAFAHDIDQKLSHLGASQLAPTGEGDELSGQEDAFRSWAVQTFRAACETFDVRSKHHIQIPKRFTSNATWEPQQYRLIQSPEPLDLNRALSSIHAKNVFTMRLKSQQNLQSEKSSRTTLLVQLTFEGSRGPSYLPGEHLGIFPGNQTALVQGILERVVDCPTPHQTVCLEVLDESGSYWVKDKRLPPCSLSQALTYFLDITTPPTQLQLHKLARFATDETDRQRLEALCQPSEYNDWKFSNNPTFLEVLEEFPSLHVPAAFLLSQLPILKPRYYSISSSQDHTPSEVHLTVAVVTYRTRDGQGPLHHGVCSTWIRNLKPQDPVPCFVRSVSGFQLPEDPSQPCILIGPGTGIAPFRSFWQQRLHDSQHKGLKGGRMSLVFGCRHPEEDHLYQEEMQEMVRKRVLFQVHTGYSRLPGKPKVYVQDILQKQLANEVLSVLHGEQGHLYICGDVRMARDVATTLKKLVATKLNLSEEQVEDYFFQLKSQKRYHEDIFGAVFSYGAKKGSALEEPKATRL
pKi: −log10 of the molar value.
// note: pKi values for UniProtKB P29477 were reported in different studies
Please use YES whenever pKi is not below 5, and NO whenever it is.

Example cases with answers are listed next.
Cc1cc(N)nc(C[C@@H]2CNC[C@@H]2OCCNCC(F)(F)c2cccc(F)c2)c1	NO
CCSC(=N)N	YES
CNCc1cccc(-c2cc(F)cc(CCc3cc(C)cc(N)n3)c2)c1	YES

Identify whether the reported pKi of the following molecule is 5 or greater: Nc1cccc(C[C@H]2CNC[C@H]2N[C@H]2CCNC2)n1 (racemic) NO
